# subject-of-test: porcine somatotropin (pST) (Sus scrofa, UniProt P01248)
# Construct: purchased Pfizer, Inc., Groton, Conn., USA (provided, not bought)
# Sequence (P01248 27-216): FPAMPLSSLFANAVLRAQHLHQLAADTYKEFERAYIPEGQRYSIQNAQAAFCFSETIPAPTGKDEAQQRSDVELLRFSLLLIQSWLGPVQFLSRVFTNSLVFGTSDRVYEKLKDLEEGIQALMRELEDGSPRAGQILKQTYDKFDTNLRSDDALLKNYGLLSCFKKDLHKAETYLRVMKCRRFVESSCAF
# assay-details: Porcine somatotropin aggregation (turbidity at 360 nm) with PEG 8000
# Type: biochemical
# reported-conditions: pST 1.27 mg/mL, 60° C., compound 100X, standard deviation in parenthesis
Residues, ends and D or L forms follow the SMILES beside them.
Exercise: for every item that follows, state its recorded inhibition index.

Q: // fetch inhibition index given entry O=C(O)CCC(=O)O [succinate, succinic acid]
A: 0.9 (0.1)

Q: // fetch inhibition index given entry NCCCCCCC(=O)O [7-aminoheptanoate, 7-aminoheptanoic acid]
A: 0.4 (0.0)

Q: // fetch inhibition index given entry NCCCCCCN [1,6-diaminohexane]
A: 0.6 (0.1)

Q: // fetch inhibition index given entry O=C(O)CCCCCCCC(=O)O [azelaate, azelaic acid]
A: 0.6 (0.0)

Q: // fetch inhibition index given entry O=C(O)CCCCC(=O)O [adipate, adipic acid]
A: 0.9 (0.1)

Q: // fetch inhibition index given entry NCC(=O)NCC(=O)NCC(=O)O [triglycine] (H-Gly-Gly-Gly-OH)
A: 0.7 (0.0)

Q: // fetch inhibition index given entry NCCCCN [1,4-diaminobutane]
A: 0.6 (0.1)

Q: // fetch inhibition index given entry NCCCCC(=O)O [5-aminovalerate, 5-aminovaleric acid]
A: 0.4 (0.0)

Q: // fetch inhibition index given entry O=C(O)CCCC(=O)O [glutarate, glutaric acid]
A: 0.9 (0.1)

Q: // fetch inhibition index given entry NCCCCCCCN [1,7-diaminoheptane]
A: 0.7 (0.0)

Q: // fetch inhibition index given entry O=C([O-])CC(=O)[O-].[Na+].[Na+] [malonate, sodium malonate]
A: 0.9 (0.1)

Q: // fetch inhibition index given entry O=C(O)CCCCCCC(=O)O [suberate, suberic acid]
A: 0.7 (0.0)

Q: // fetch inhibition index given entry NCC(=O)O [glycine]
A: 0.4 (0.1)

Q: // fetch inhibition index given entry NCCN [ethylenediamine]
A: 0.7 (0.0)

Q: // fetch inhibition index given entry O=C(O)CCCCCC(=O)O [pimelate, pimelic acid]
A: 0.8 (0.1)

Q: // fetch inhibition index given entry NCCCN [1,3-diaminopropane]
A: 0.6 (0.0)

Q: // fetch inhibition index given entry NCCC(=O)O [beta-alanine]
A: 0.4 (0.1)

Q: // fetch inhibition index given entry O=C(O)C(=O)O [oxalate, oxalic acid]
A: 0.8 (0.1)

Q: // fetch inhibition index given entry NCCCC(=O)O [4-aminobuytrate, 4-aminobutyric acid]
A: 0.3 (0.0)

Q: // fetch inhibition index given entry NCCCCCC(=O)O [6-aminocaproate, 6-aminocaproic acid]
A: 0.5 (0.1)

Q: // fetch inhibition index given entry NCCCCCN [1,5-diaminopentane]
A: 0.8 (0.3)

* * *

# subject-of-test: human acidic fibroblast growth factor (FGF-1) (Homo sapiens, UniProt P05230)
# Sequence (P05230 whole entry): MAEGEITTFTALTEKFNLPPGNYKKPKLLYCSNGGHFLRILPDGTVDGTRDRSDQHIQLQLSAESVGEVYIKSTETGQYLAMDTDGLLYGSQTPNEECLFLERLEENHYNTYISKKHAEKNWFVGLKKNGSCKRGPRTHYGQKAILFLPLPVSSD
# assay-details: FGF-1 thermal aggregation (turbidity at 360 nm)
# Assay type: biochemical
# reported-conditions: FGF-1 50 μg/mL, 50° C.; compound 1,000×; standard deviation in parenthesis
Residues, ends and D or L forms follow the SMILES beside them.
metric-name: inhibition index

Q: // fetch inhibition index given entry "NCCCCN"
A: 2.5 (1.3)

Q: // fetch inhibition index given entry NCC(=O)NCC(=O)NCC(=O)O [triglycine] (H-Gly-Gly-Gly-OH)
A: 2.2 (1.1)

Q: // fetch inhibition index given entry O=C(O)C(=O)O [oxalate, oxalic acid]
A: 5.2 (1.5)

Q: // fetch inhibition index given entry O=C(O)CCCCCCCC(=O)O [azelaate, azelaic acid]
A: 1.9 (0.2)

Q: // fetch inhibition index given entry O=C(O)CCCC(=O)O [glutarate, glutaric acid]
A: 3.0 (0.9)
